Reference source: patent US4939132A

Field: Maximum % Inhibition. Provide a value for each of the compounds that follow.
test system: S. mutans; assay: In vitro plaque growth inhibition (bovine enamel slabs), S. mutans; assay type: cell-based, Streptococcus mutans; details: at 0.2%

Exercise: What Maximum % Inhibition appears in the records for this compound with S. mutans? O=C(Nc1ccc(Br)cc1)c1cc(Br)cc(Br)c1O [(a), tribromosalan, reference compound]
Key: 46%

Exercise: What Maximum % Inhibition appears in the records for this compound with S. mutans? CCCCCCCCCC(=O)c1ccc(O)c(C(=O)Nc2ccc([N+](=O)[O-])cc2)c1 [(b), 5-n-decanoyl-4'-nitrosalicylanilide, reference compound]
Key: 59%

Exercise: What Maximum % Inhibition appears in the records for this compound with S. mutans? CCCCCCCCCCS(=O)(=O)c1ccc(O)c(C(=O)Nc2ccc([N+](=O)[O-])cc2)c1
Key: 80%

Exercise: What Maximum % Inhibition appears in the records for this compound with S. mutans? CCCCCCCCCCS(=O)(=O)c1ccc(O)c(C(=O)Nc2ccc(C(F)(F)F)cc2)c1
Key: 76%

* * *

Field: MIC. Provide a value for each of the compounds that follow.
tested on: S. epidermidis; test: Tube dilution assay (Macro-Broth Dilution Method), S. epidermidis; format: cell-based; conditions: Staphylococcus epidermidis; S. epidermidis; Mueller-Hinton broth, 35° C., 16 to 20 hours; read-out: Minimal Inhibitory Concentration
Numeric only. Scale: µg/mL

Exercise: Could you share which MIC value was measured for CCCCCCCCCCS(=O)(=O)c1ccc(O)c(C(=O)Nc2cccc(C(F)(F)F)c2)c1 [(e)] ?
Key: 0.5

Exercise: Could you share which MIC value was measured for CCCCCCCCCC(=O)c1ccc(O)c(C(=O)Nc2ccc([N+](=O)[O-])cc2)c1 [(b), 5-n-decanoyl-4'-nitrosalicylanilide, reference compound] ?
Key: 0.1

Exercise: Could you share which MIC value was measured for CCCCCCCCCCS(=O)(=O)c1ccc(O)c(C(=O)Nc2ccc(C(F)(F)F)cc2)c1 [(d)] ?
Key: 0.1

Exercise: Could you share which MIC value was measured for CCCCCCCCCCS(=O)(=O)c1ccc(O)c(C(=O)Nc2ccc(Br)cc2)c1 [(g), 5-n-decylsulfony-4'-bromosalicylanilide] ?
Key: 0.5

Exercise: Could you share which MIC value was measured for CCCCCCCCCCS(=O)(=O)c1ccc(O)c(C(=O)Nc2ccc([N+](=O)[O-])cc2)c1 [(c)] ?
Key: 0.5

Exercise: Could you share which MIC value was measured for CCCCCCS(=O)(=O)c1ccc(O)c(C(=O)Nc2ccc(Br)cc2)c1 [(h), 5-n-hexylsulfonyl-4'-bromosalicylanilide] ?
Key: 10

Exercise: Could you share which MIC value was measured for CCCCCCCCCCCCS(=O)(=O)c1ccc(O)c(C(=O)Nc2ccc(C(F)(F)F)cc2)c1 [(i)] ?
Key: 0.1

Exercise: Could you share which MIC value was measured for CCCCCCCCS(=O)(=O)c1ccc(O)c(C(=O)Nc2ccc([N+](=O)[O-])cc2)c1 [(f)] ?
Key: 5
